system: T47D; test: Cytotoxicity against human T47D cells after 72 hrs by CellTiter-Glo assay; type: functional, cell-based
We begin with a simple list: items and their reported IC50.
The figure you give is taken to be in nM; do not add the unit.

query smiles: C[C@@H]1O[C@@H](O[C@H]2C[C@@H](O)[C@]3(CO)[C@H]4[C@H](O)C[C@]5(C)[C@@H](C6=CC(=O)OC6)CC[C@]5(O)[C@@H]4CC[C@]3(O)C2)[C@H](O)[C@H](O)[C@H]1O
endpoint value: 385

Query :: Please look up its IC50: C[C@]12CC[C@H](O[C@@H]3O[C@H](CO)[C@@H](O)[C@H](O)[C@H]3O)C[C@@H]1CC[C@@H]1[C@@H]2CC[C@]2(C)[C@@H](C3=CC(=O)OC3)CC[C@]12O
Result :: 11700

Query :: Check C[C@]12CC[C@H](O)C[C@H]1CC[C@@H]1[C@@H]2CC[C@]2(C)[C@@H](C3=CC(=O)OC3)CC[C@]12O too.
Result :: 2530

---

Property: pIC50; scope: individual molecules
system: T47D; experiment: Cytotoxicity against human T47D cells after 72 hrs by CellTiter-Glo assay; assay type: functional, cell-based
Keep it numeric: pIC50 is minus log10 of the concentration in mol/L.

# example entries with known answers
query smiles: C[C@]12CC[C@H](O[C@@H]3O[C@H](CO[C@@H]4O[C@H](CO)[C@@H](O)[C@H](O)[C@H]4O)[C@@H](O)[C@H](O)[C@H]3O)C[C@@H]1CC[C@@H]1[C@@H]2CC[C@]2(C)[C@@H](C3=CC(=O)OC3)CC[C@]12O
pIC50: 5.02
//
query smiles: COc1cccc2c1C(=O)c1c(O)c3c(c(O)c1C2=O)C[C@@](O)(C(=O)CO)C[C@@H]3O[C@H]1C[C@H](N)[C@H](O)[C@H](C)O1
pIC50: 5.72
//
query smiles: C[C@H]1O[C@@H](O[C@H]2[C@@H](O)C[C@H](O[C@H]3[C@@H](O)C[C@H](O[C@H]4CC[C@@]5(C)[C@H](CC[C@@H]6[C@@H]5C[C@@H](O)[C@]5(C)[C@@H](C7=CC(=O)OC7)CC[C@]65O)C4)O[C@@H]3C)O[C@@H]2C)C[C@H](O)[C@@H]1O
pIC50: 6.18

// moving on: another record for pIC50
Query :: Entry C[C@H]1O[C@@H](O[C@H]2CC[C@@]3(C)[C@@H](CC[C@@H]4[C@@H]3CC[C@]3(C)[C@@H](C5=CC(=O)OC5)CC[C@]43O)C2)[C@H](O)[C@H](O)[C@@H]1O[C@@H]1O[C@H](CO)[C@@H](O)[C@H](O)[C@H]1O has what pIC50?
Result :: 5.75

This collection of values is drawn from ChEMBL document CHEMBL2021788.
